Assay: JN-170 plasma pharmacokinetics in Pah^enu2 mice, single oral dose
Type: in vivo, mouse
Conditions: male, BTBR-Pah<enu2>/J (Pah^enu2), mouse, plasma, oral, 50 mg/kg, 50 mg/kg oral, 8 h; individual Pah^enu2 mice; read-out: JN-170 plasma level (Fig 3a)
parameter-measured: concentration at 8 h (ng/mL)
Report as a plain number; the unit ng/mL is understood.

Inquiry: May I ask what concentration at 8 h has been recorded for N#Cc1ccc(-c2noc([C@]3(C(F)(F)F)CCN(C(=O)NCCC4(N)CC4)C3)n2)cc1 ?
Reply text: 456

----------
Assay: JN-170 plasma pharmacokinetics in Pah^enu2 mice, single oral dose
Assay type: in vivo, mouse
Details: male, BTBR-Pah<enu2>/J (Pah^enu2), mouse, plasma, oral, 200 mg/kg, 200 mg/kg oral, 8 h; individual Pah^enu2 mice; read-out: JN-170 plasma level (Fig 3a)
parameter-measured: concentration at 8 h (ng/mL)
Report as a plain number; the unit ng/mL is understood.

Inquiry: May I ask what concentration at 8 h has been recorded for N#Cc1ccc(-c2noc([C@]3(C(F)(F)F)CCN(C(=O)NCCC4(N)CC4)C3)n2)cc1 ?
Reply text: 8610

Source listed as paper PMC11601558.
